Target: DCN1 (DCUND1) protein PONY domain (Homo sapiens (Human))
Sequence (Q96GG9 60-248): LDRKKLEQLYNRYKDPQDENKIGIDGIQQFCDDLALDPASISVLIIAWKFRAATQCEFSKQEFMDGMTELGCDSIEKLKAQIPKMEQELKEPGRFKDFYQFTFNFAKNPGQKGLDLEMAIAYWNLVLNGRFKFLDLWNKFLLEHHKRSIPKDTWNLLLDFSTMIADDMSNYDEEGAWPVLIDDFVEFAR
Experiment: TR-FRET assay, DCN1 binding with FAM-labeled probe
Settings: 24 hr after treatment with compound; read-out: TR FRET IC50 24 hr
pIC50: −log10 of the molar value.
Answer each item with its documented pIC50.

Please report pIC50 with DCN1 (DCUND1) protein PONY domain (Homo sapiens (Human)) for item CCN1C(=O)[C@@H](NC(=O)c2cccc(C(F)(F)F)c2)[C@@H](C2CC2)c2c(C(=O)N3CC(=O)C[C@H]3C#N)nn(C3CCOCC3)c21 [Compound I-626] .
≥ 6.70

Please report pIC50 with DCN1 (DCUND1) protein PONY domain (Homo sapiens (Human)) for item C=C(CN1CCOCC1)C(=O)N[C@H](C)c1nn(-c2ccccc2)c2c1[C@H](c1ccc(F)cc1)[C@H](NC(=O)c1cccc(C(F)(F)F)c1)C(=O)N2CC (mixture of isomers) [Compound I-8] .
≥ 6.70

Please report pIC50 with DCN1 (DCUND1) protein PONY domain (Homo sapiens (Human)) for item CCN1C(=O)[C@@H](NC(=O)c2cccc(C(F)(F)F)c2)[C@@H](c2ccc(F)cc2)c2c(C(=O)N(CC#N)CCN3CCOCC3)nn(-c3ccccc3)c21 (racemic) [Compound I-320] .
≥ 6.70

Please report pIC50 with DCN1 (DCUND1) protein PONY domain (Homo sapiens (Human)) for item CCN1C(=O)[C@@H](NC(=O)CC(C)(C)C)[C@@H](C2CC2)c2c(C(=O)N3[C@H](C#N)C[C@H]4C[C@H]43)nn(C3CCOCC3)c21 [Compound I-424] .
5.52 to 6.00

Please report pIC50 with DCN1 (DCUND1) protein PONY domain (Homo sapiens (Human)) for item CCN1C(=O)[C@@H](NC(=O)c2cccc(C(F)(F)F)c2)[C@@H](c2ccc(F)cc2)c2c(CNC(=O)C3(C#N)CC3)nn(-c3ccccc3)c21 (racemic) [Compound I-37] .
5.52 to 6.00

----------
Answer each item with its documented IC50.
Target: DCN1 (DCUND1) protein PONY domain (Homo sapiens (Human))
Test: TR-FRET assay, DCN1 binding with FAM-labeled probe
Conditions: 24 hr after treatment with compound; read-out: TR FRET IC50 24 hr

Return value of IC50 for input CCN1C(=O)[C@@H](NC(=O)c2cccc(C(F)(F)F)c2)[C@@H](C2CC2)c2c(C(=O)N3CS(=O)(=O)C[C@@H]3C#N)nn(C3CCOCC3)c21 [Compound I-560] , no commentary.
≤ 200 nM

Return value of IC50 for input CCN1C(=O)[C@@H](NC(=O)c2cccc(C(F)(F)F)c2)[C@@H](c2ccc(F)cc2)c2c(CN(C#N)CCCN3CC4(COC4)C3)nn(-c3ccccc3)c21 [Compound I-577] , no commentary.
200 to 1000 nM

Return value of IC50 for input CCCn1nc(C(=O)N2CCC[C@H]2C#N)c2c1N(CC)C(=O)[C@@H](NC(=O)c1cccc(C(F)(F)F)c1)[C@H]2C1CC1 [Compound I-467] , no commentary.
≤ 200 nM

Return value of IC50 for input CCN1C(=O)[C@@H](NC(=O)c2ccc(F)c(F)c2OC)[C@@H](C2CC2)c2c(C(=O)N3[C@H](C#N)C[C@H]4C[C@H]43)nn(C3CCOCC3)c21 [Compound I-502] , no commentary.
200 to 1000 nM

Return value of IC50 for input CCN1C(=O)[C@H](NC(=O)c2cccc(C(F)(F)F)c2)[C@H](c2ccc(F)cc2)c2c(C(=O)N(CC#N)C3CC3)nn(C3CCOCC3)c21 [Compound I-414] , no commentary.
1000 to 3000 nM
